All values here come from ChEMBL document CHEMBL1201862.

System: OVCAR-4
assay: NCI tumour cell line growth inhibition, 48 h
The source made the active and inactive calls. Cut-off read from the data, not from the text of the source: active = GI50 up to about 1.1 µM and inactive = higher.
parameterMeasured: GI50

Observe how each entry below is paired with its result.
Cc1ccc(Nc2nc3c(s2)C(=O)c2ccccc2C3=O)cc1: 1.55 µM (inactive)
O=C(OCc1ccccc1)N(CCCCN(CCCNC(=O)C(F)(F)F)C(=O)OCc1ccccc1)CCCNC(=O)C(F)(F)F: > 100 µM (inactive)
COc1cc(C2c3cc4c(cc3OC(Nc3ccccc3)C2C)OCO4)cc(OC)c1OC (centres undefined): 24.7 µM (inactive)
COC(=O)C1CCCN1C(=O)OC(C)(C)C (centres undefined): > 100 µM (inactive)
Cc1nc2ccccc2c(=O)n1/N=C(\N=N\c1cc(Cl)ccc1Cl)c1cccc(-c2ccco2)c1: > 100 µM (inactive)

Now consider the entry below.
Summary for this molecule, CCc1[nH]c(=O)nc(N)c1-c1ccc(N2CCCCC2)c([N+](=O)[O-])c1 : GI50 is > 100 µM (inactive)
